# ASSAY PROCEDURE: chemical genetic growth profiling, strain panel (AID 1159580);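 further: tested at 20 µM; growth read once vehicle control cultures reached saturation at 30 °C; lower values mean less growth of the strain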
# CONDITIONS: S. cerevisiae deletion strains, growth OD, locus YJL166W, strain qcr8
In all, about 5,500 compounds went through this assay and about 2,000 (36%) were called active. Inconclusive results (about 18%) are left out. No stated cut-off is given here; in the data, active means normalized growth mostly below about 0.91 (no sharp cut-off); inconclusive means no clear call, values can overlap the other calls; inactive means mostly above about 0.92. This is one part of the list.
Outcomes you can answer with include only these: active, inactive

- MOLECULE: "NC(=O)c1ccc([N+](=O)[O-])cc1Cl"
  LABEL: "inactive"

Task item: Hi, do you know how NCC(O)CC(=O)O (configuration not stated) came out in this test?
Reply: inactive

Task item: Hi, do you know how "CC(C)c1cccc(O)c(=O)c1" came out in this test?
Reply: active

Task item: Hi, do you know how "C/C=C(\C)C(=O)O[C@@H]1c2c(ccc3ccc(=O)oc23)OC(C)(C)[C@@H]1OC(C)=O" came out in this test?
Reply: inactive

Task item: Hi, do you know how "O=S(=O)(O)O" came out in this test?
Reply: inactive

Task item: Hi, do you know how "NC(=O)c1cc([N+](=O)[O-])cc([N+](=O)[O-])c1" came out in this test?
Reply: inactive

Task item: Hi, do you know how "Cc1cc(N)c2ccccc2[n+]1CCCCCCCCCC[n+]1c(C)cc(N)c2ccccc21" came out in this test?
Reply: active
